System: Ba/F3 cells expressing EGFR mutations
Assay: Cell proliferation assay, Ba/F3 cells expressing EGFR mutations (CellTiter-Glo, 72 hours)
Format: cell-based
Conditions: BaF3 cells, EGFR L858R-T790M, CellTiter-Glo, read-out: L858R-T790M/BaF3 GI50
Could you mark each record true (1) if its GI50 falls strictly under 400 nM, and false (0) if it equals or exceeds it?

CN(C)C1CCN(c2ccc3nc4n(c3c2)C23CCC(CN(CCOc5c(cnn5C)-c5cc(cn(C)c5=O)C(=O)N4)C2)C3)CC1(F)F (single isomer, unassigned) [Example A97A]
false (0)

Exam item: Determine if CN(C)[C@H]1CCN(c2ccc3nc4n(c3c2)C23CCC(CN(CCOc5c(cnn5C)-c5cc(cn(C)c5=O)C(=O)N4)C2)C3)C1 (single isomer, unassigned) [Example A66B] shows GI50 strictly lower than 400 nM.
Marked response: true (1)

Exam item: Determine if CCC1CCCOc2c(cnn2C)-c2cc(cn(C)c2=O)C(=O)Nc2nc3ccc(N4CCN(C)CC4)cc3n2C1 (single isomer, unassigned) [Example A16B] shows GI50 strictly lower than 400 nM.
Marked response: true (1)

Exam item: Determine if CN1CCOC2(C1)CN(c1ccc3nc4n(c3c1)C13CCC(CN(CCOc5c(cnn5C)-c5cc(cn(C)c5=O)C(=O)N4)C1)C3)C2 (single isomer, unassigned) [Example A86B] shows GI50 strictly lower than 400 nM.
Marked response: true (1)

----------
System: Ba/F3 cells expressing EGFR mutations
Assay: Cell proliferation assay, Ba/F3 cells expressing EGFR mutations (CellTiter-Glo, 72 hours)
Assay type: cell-based
Conditions: Mus musculus, BaF3, 72 h, EGFR DEL19 - T790M, read-out: GI50 DEL19 - T790M
Labels assigned by GI50 range: class 1 (below 9 nM), class 2 (9 nM to below 30 nM), class 3 (30 nM or more)

These recorded examples may help you get a feel for the data.
Cc1cc2cc(n1)-c1cnn(C)c1OCCN1CC3CCC(CC3)(C1)n1c(nc3ccc(N4CCC5(CN(C)C5)C4)cc31)NC2=O
class 1
Cc1cc2cc(n1)-c1cnn(C)c1OCCN1CC3CCC(CC3)(C1)n1c(nc3ccc(N4CCN(C5CC5)CC4)cc31)NC2=O
class 2
Cc1cc2cc(n1)-c1cnn(C)c1OCCCCCn1c(nc3ccn(C)c(=O)c31)NC2=O
class 3
Cc1cc2cc(n1)-c1cnn(C)c1OCCCCCn1c(nc3ccc4c(c31)CCN(CCN(C)C)C4)NC2=O
class 1
Cn1ncc2c1OCCN1CC3CCC(C3)(C1)n1c(nc3cc(F)c(N4CCOCC4)cc31)NC(=O)c1cc-2c(=O)n(C)c1 (single isomer, unassigned) [Example A118B]
class 1

Exam item: Sort Cc1cc2cc(n1)-c1cnn(C)c1OCCCCCn1c(nc3ccc4c(c31)CCN(C1COC1)C4)NC2=O into one of the categories.
Marked response: class 1

Exam item: Sort Cc1cc2cc(n1)-c1cnn(C)c1OCCN1CC3CCC(CC3)(C1)n1c(nc3ccc(N4CCOCC4)cc31)NC2=O into one of the categories.
Marked response: class 1

Exam item: Sort C[C@@H]1CCCOc2ccc(F)cc2-c2cc(cn(C)c2=O)C(=O)Nc2nc3ccc(N4CCN(C)CC4)cc3n2C1 into one of the categories.
Marked response: class 2

Exam item: Sort Cc1cc2cc(n1)-c1cnn(C)c1OCCN1CC3CCC(CC3)(C1)n1c(nc3ccc(N(C)CCCN(C)C)cc31)NC2=O into one of the categories.
Marked response: class 1

Exam item: Sort Cc1cc2cc(n1)-c1cnn(C)c1OCCN1CC3CCC(CC3)(C1)n1c(nc3ccc(N4CC[C@H](N(C)C)C4)cc31)NC2=O into one of the categories.
Marked response: class 1

Exam item: Sort Cc1cc2cc(n1)-c1cnn(C)c1OCCN1CC3CCC(C3)(C1)n1c(nc3ccc(N4CCN(C)CC4)cc31)NC2=O (single isomer, unassigned) [Example B9A] into one of the categories.
Marked response: class 3

Exam item: Sort Cc1cc2cc(n1)-c1cnn(C)c1OCCN1CC3CCC(CC3)(C1)n1c(nc3ccccc31)NC2=O into one of the categories.
Marked response: class 2

Exam item: Sort Cc1cc2cc(n1)-c1cnn(C3CC3)c1OCCN(CC(F)(F)F)CCn1c(nc3ccccc31)NC2=O into one of the categories.
Marked response: class 3

Exam item: Sort Cc1cc2cc(n1)-c1cnn(C)c1OCCN1CCOCC(C1)n1c(nc3ccccc31)NC2=O (single isomer, unassigned) into one of the categories.
Marked response: class 3

Exam item: Sort Cc1cc2cc(n1)-c1cnn(C)c1OCCN1CCCCC(C1)n1c(nc3ccccc31)NC2=O (stereo not shown) into one of the categories.
Marked response: class 3

Exam item: Sort CN1CC2CN(c3ccc4nc5n(c4c3)C34CCC(CC3)CN(CCOc3c(cnn3C)-c3cc(cn(C)c3=O)C(=O)N5)C4)CC2C1 (stereo not shown) into one of the categories.
Marked response: class 2

Exam item: Sort C[C@@H]1CCCOc2cc(F)c(F)cc2-c2cc(cn(C)c2=O)C(=O)Nc2nc3ccc(N4CCN(C)CC4)cc3n2C1 into one of the categories.
Marked response: class 3

Exam item: Sort CN1CCC2CN(c3ccc4nc5n(c4c3)C34CCC(CC3)CN(CCOc3c(cnn3C)-c3cc(cn(C)c3=O)C(=O)N5)C4)CC21 (stereo not shown) into one of the categories.
Marked response: class 2

Exam item: Sort CN1CCC2(CC1)CCN(c1ccc3nc4n(c3c1)C13CCC(CC1)CN(CCOc1c(cnn1C)-c1cc(cn(C)c1=O)C(=O)N4)C3)C2 into one of the categories.
Marked response: class 2

Exam item: Sort Cc1cc2cc(n1)-c1cnn(C)c1OCCN1CC3CCC(CC3)(C1)n1c(nc3ccc(N(C)CCN(C)C)cc31)NC2=O into one of the categories.
Marked response: class 1

Exam item: Sort Cc1cc2cc(n1)-c1cnn(C)c1OCCN1CC3CCC(CC3)(C1)n1c(nc3ccc(N4CCC5(CCN(C)CC5)C4)cc31)NC2=O into one of the categories.
Marked response: class 2

----------
Consider the following compounds; for each one, report its GI50.
Test system: Ba/F3 cells expressing EGFR mutations
Experiment: Cell proliferation assay, Ba/F3 cells expressing EGFR mutations (CellTiter-Glo, 72 hours)
Assay type: cell-based
Details: BaF3 cells, EGFR DEL19 - C797S, read-out: GI50 DEL19 - C797S/BaF3
Protocol: Biological Example 2: Cell Proliferation Assays Ba/F3 cells expressing EGFR mutations were seeded in 384-well plates at 5000 cells/well in RPMI1640 medium containing 1000 FBS. […] The assay plates were further incubated for 72 hours and the number of viable cells (G3) was measured. The percentage of proliferation was calculated as: […]=100×(G3 value of sample well−G0 value)/(G3 value of DMSO control−G0 value). […]
One number for each entry, in µM.

Cc1cc2cc(n1)-c1cnn(C)c1OCCN1CC3CCC(C3)(C1)n1c(nc3ccc(N4CCC(N5CCOCC5)C4)cc31)NC2=O (single isomer, unassigned) [Example B44A1]
0.47
Cc1cc2cc(n1)-c1cnn(C)c1OCCN1CC3CCC(C3)(C1)n1c(nc3ccc(N4CCN(C(C)C)CC4)cc31)NC2=O (single isomer, unassigned) [Example B57A]
0.208

Proceed to the following item.
The measured GI50 associated with CCN1CCN(c2ccc3nc4n(c3c2)C23CCC(CN(CCOc5c(cnn5C)-c5cc(cc(C)n5)C(=O)N4)C2)C3)CC1 (single isomer, unassigned) [Example B56A] reads 0.082

----------
Target: EGFR Exon19Del/T790M (Homo sapiens, UniProt P00533, DEL746-750/T790M)
Construct: purchased Carna Bio
Sequence (P00533 with tags, fused parts or gaps DEL746-750/T790M limits assumed): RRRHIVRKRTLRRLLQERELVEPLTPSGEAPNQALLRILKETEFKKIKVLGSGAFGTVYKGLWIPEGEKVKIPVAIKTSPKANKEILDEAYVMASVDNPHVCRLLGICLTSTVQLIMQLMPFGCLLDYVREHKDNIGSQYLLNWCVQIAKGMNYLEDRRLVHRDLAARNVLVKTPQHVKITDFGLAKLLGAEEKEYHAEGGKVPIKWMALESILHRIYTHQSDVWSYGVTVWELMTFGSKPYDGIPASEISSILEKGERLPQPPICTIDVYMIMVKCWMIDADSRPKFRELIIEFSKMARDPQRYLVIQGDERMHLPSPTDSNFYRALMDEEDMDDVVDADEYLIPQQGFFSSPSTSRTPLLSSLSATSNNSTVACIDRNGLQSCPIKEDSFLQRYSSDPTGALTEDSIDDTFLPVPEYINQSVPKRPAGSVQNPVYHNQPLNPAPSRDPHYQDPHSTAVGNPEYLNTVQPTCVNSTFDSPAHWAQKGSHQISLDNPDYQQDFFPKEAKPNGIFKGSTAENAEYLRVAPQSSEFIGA
Experiment: Inhibition of EGFR Exon19Del/T790M biochemical enzymatic activity (HTRF)
Conditions: EGFR Del19-T790M, 1 mM ATP, 1 h, room temperature, read-out: IC50 (nM) @Del19-T790M
Could you mark each record fulfilled if its IC50 falls strictly under 2 nM, and not fulfilled if it equals or exceeds it?

These recorded examples may help you get a feel for the data.
Cc1cc2cc(n1)-c1cnn(C)c1OCCN1CC3CCC(CC3)(C1)n1c(nc3ccccc31)NC2=O [Example B1]
not fulfilled
Cn1ncc2c1OCCN1CC3CCC(C3)(C1)n1c(nc3ccc(N4CCN(C5COC5)CC4)cc31)NC(=O)c1cc-2c(=O)n(C)c1 (single isomer, unassigned) [Example A71B]
not fulfilled
C[C@@H]1CCCOc2c(cnn2C)-c2cc(cn(C)c2=O)C(=O)Nc2nc3ccc(N4CCN(C(=O)OC(C)(C)C)CC4)cc3n2C1 [Example A54]
not fulfilled
CN(C)C1CN(c2ccc3nc4n(c3c2)C23CCC(CN(CCOc5c(cnn5C)-c5cc(cn(C)c5=O)C(=O)N4)C2)C3)C1 (single isomer, unassigned) [Example A65B]
fulfilled
C[C@@H]1CCCOc2c(cnn2C)-c2cc(cn(C)c2=O)C(=O)Nc2nc3ccc(N4CC5(CCCN5C)C4)cc3n2C1 [Example A44]
not fulfilled

Proceed to the following item.
Exam item: Determine if Cn1ncc2c1OCCN1CC3CCC(CC3)(C1)n1c(nc3ccc(N4CCOCC4)cc31)NC(=O)c1cc-2c(=O)n(C)c1 [Example A74] shows IC50 strictly lower than 2 nM.
Marked response: not fulfilled
